tested_system: Mitogen-activated protein kinase 11 (Homo sapiens, UniProt Q15759)
Sequence (Q15759 whole entry): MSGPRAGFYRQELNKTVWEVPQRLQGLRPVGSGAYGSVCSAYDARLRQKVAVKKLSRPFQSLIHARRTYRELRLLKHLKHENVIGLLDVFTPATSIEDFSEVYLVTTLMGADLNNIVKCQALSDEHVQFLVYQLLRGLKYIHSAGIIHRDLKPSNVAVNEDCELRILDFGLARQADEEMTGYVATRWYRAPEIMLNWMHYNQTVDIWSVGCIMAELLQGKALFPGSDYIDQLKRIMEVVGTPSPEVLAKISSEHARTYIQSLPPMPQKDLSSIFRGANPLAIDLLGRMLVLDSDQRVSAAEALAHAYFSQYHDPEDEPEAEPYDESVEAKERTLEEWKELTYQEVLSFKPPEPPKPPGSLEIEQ
procedure_details: Inhibition of MAPK11 (unknown origin) incubated for 1 hr by qPCR analysis
Reported IC50 values are given for each entry in this list.
property_measured: IC50 (nM)

• O=S(=O)(NCCNc1nccc(-c2c(-c3cccc(O)c3)nc3sccn23)n1)c1ccc(F)cc1 = 1210
• O=S(=O)(NCCCNc1nccc(-c2c(-c3cccc(O)c3)nc3sccn23)n1)c1cccc(F)c1 = 980
• COc1cccc(-c2nc3sccn3c2-c2ccnc(NCCNS(=O)(=O)c3ccc(C(F)(F)F)cc3)n2)c1 = 120
• CN1CCN(CCNc2nccc(-c3c(-c4cccc(O)c4)nc4sccn34)n2)S1(=O)=O = 820
• COc1cccc(-c2nc3sccn3c2-c2ccnc(NCCCNS(=O)(=O)c3cccc(F)c3)n2)c1 = 95

###

System: Panel CNS (Carcinoma cell lines)
procedure_details: Antiproliferative activity against human Panel CNS (Carcinoma cell lines) assessed as cell growth inhibition measured after 48 hrs by SRB assay
property_measured: IC50 (µM)

- O=S(=O)(NCCCNc1nccc(-c2c(-c3cccc(O)c3)nc3sccn23)n1)c1cccc(F)c1: 3.19
- COc1ccc(S(=O)(=O)NCCNc2nccc(-c3c(-c4ccccc4)nc4sccn34)n2)cc1: 6.46
- CN1CCCN(CCNc2nccc(-c3c(-c4cccc(O)c4)nc4sccn34)n2)S1(=O)=O: 16.4

###

procedure_details: Stability in human plasma assessed as parent compound remaining at 10 uM measured after 120 mins by LC-MS analysis
Assay type: ADME, cell-free
measurement_setup: read-out: Stability
property_measured: remaining at 2 h, 10 µM (%)

* CN1CCN(CCNc2nccc(-c3c(-c4cccc(O)c4)nc4sccn34)n2)S1(=O)=O | 95.4

###

procedure_details: Volume of distribution in Sprague-Dawley rat at 5 mg/kg, iv by LC-MS/MS analysis
Assay type: ADME, organism-based
measurement_setup: in vivo
property_measured: Vd (L/kg)

• CN1CCN(CCNc2nccc(-c3c(-c4cccc(O)c4)nc4sccn34)n2)S1(=O)=O = 0.578

###

tested_system: Serine/threonine-protein kinase B-raf (Homo sapiens, UniProt P15056, V600E)
Sequence (P15056 2-766 V600E limits assumed): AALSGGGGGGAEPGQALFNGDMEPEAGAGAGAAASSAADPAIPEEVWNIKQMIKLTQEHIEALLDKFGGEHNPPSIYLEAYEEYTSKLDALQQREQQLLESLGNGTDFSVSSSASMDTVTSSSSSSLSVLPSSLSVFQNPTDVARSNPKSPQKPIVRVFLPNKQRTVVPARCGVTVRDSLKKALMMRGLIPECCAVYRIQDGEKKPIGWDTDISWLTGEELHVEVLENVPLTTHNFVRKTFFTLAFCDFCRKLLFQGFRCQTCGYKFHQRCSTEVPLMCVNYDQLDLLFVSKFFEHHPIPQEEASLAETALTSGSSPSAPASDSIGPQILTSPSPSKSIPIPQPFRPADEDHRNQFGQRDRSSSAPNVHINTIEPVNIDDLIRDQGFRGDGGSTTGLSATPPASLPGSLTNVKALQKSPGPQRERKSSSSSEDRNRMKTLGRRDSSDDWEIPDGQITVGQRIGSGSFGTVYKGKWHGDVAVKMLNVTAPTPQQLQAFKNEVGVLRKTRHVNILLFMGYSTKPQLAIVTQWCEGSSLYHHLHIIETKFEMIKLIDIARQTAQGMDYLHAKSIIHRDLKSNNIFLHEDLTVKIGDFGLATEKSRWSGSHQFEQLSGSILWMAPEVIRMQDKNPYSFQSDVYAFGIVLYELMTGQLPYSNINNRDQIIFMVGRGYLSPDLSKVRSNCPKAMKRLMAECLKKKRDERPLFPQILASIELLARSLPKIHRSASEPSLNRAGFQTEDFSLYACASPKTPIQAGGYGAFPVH
procedure_details: Inhibition of human BRAF V600E mutant using myelin basic protein as substrate in presence of [gamma-33P]ATP incubated for 40 mins by scintillation counting method
property_measured: IC50

• COc1ccc(-c2nc3sccn3c2-c2ccnc(NCCNS(=O)(=O)c3ccc(C)cc3)n2)cc1 = 26.6 µM
• COc1cccc(-c2nc3sccn3c2-c2ccnc(NCCNS(=O)(=O)c3cccc(F)c3)n2)c1 = 0.112 µM
• COc1ccc(-c2nc3sccn3c2-c2ccnc(NCCNS(=O)(=O)c3ccc(F)cc3)n2)cc1 = 13.2 µM
• O=S1(=O)N(CCNc2nccc(-c3c(-c4cccc(O)c4)nc4sccn34)n2)CCN1Cc1ccccc1 = 0.00725 µM
• COc1cccc(-c2nc3sccn3c2-c2ccnc(NCCCNS(=O)(=O)c3ccc(F)cc3)n2)c1 = 0.0903 µM
• CC1(C)CN(CCNc2nccc(-c3c(-c4cccc(O)c4)nc4sccn34)n2)S(=O)(=O)N1 = 0.00635 µM
• Cc1ccc(S(=O)(=O)NCCCNc2nccc(-c3c(-c4cccc(O)c4)nc4sccn34)n2)cc1 = 0.009 µM
• Cc1ccc(S(=O)(=O)NCCNc2nccc(-c3c(-c4ccc(O)cc4)nc4sccn34)n2)cc1 = 21.3 µM
• O=S(=O)(NCCNc1nccc(-c2c(-c3ccc(O)cc3)nc3sccn23)n1)c1ccc(O)cc1 = 25.1 µM

###

So I've got log10 of IC50 readings for Serine/threonine-protein kinase B-raf (Homo sapiens, UniProt P15056), take a look.
property_measured: log10 of IC50 (log10 of the value in µM)

* COc1ccc(-c2nc3sccn3c2-c2ccnc(NCCNS(=O)(=O)c3ccc(F)cc3)n2)cc1 | 0.96
* COc1ccc(-c2nc3sccn3c2-c2ccnc(NCCNS(=O)(=O)c3cccc4ccccc34)n2)cc1 | 1.32
* COc1cccc(-c2nc3sccn3c2-c2ccnc(NCCN3CCN(C)S3(=O)=O)n2)c1 | -2.21
* COc1ccc(S(=O)(=O)NCCNc2nccc(-c3c(-c4cccc(OC)c4)nc4sccn34)n2)cc1 | -0.13
* Cc1ccc(S(=O)(=O)NCCCNc2nccc(-c3c(-c4ccccc4)nc4sccn34)n2)cc1 | -0.28
* COc1cccc(-c2nc3sccn3c2-c2ccnc(NCCN3CCNS3(=O)=O)n2)c1 | -1.69
* COc1cccc(-c2nc3sccn3c2-c2ccnc(NCCNS(=O)(=O)c3cccc(F)c3)n2)c1 | -0.25
* COc1cccc(-c2nc3sccn3c2-c2ccnc(NCCNS(=O)(=O)c3ccccc3)n2)c1 | -0.03
* COc1cccc(-c2nc3sccn3c2-c2ccnc(NCCCNS(=O)(=O)c3ccc4ccccc4c3)n2)c1 | -0.07
* COc1ccc(-c2nc3sccn3c2-c2ccnc(NCCNS(=O)(=O)c3ccc(OC)cc3)n2)cc1 | 1.00
* COc1cccc(-c2nc3sccn3c2-c2ccnc(NCCN3CCCNS3(=O)=O)n2)c1 | -1.74
* CC(C)(C)OC(=O)N1CCCN(CCNc2nccc(-c3c(-c4cccc(O)c4)nc4sccn34)n2)S1(=O)=O | -1.95
* COc1cccc(-c2nc3sccn3c2-c2ccnc(NCCNS(=O)(=O)c3ccc4ccccc4c3)n2)c1 | -0.04
* O=S1(=O)NCCN1CCNc1nccc(-c2c(-c3cccc(O)c3)nc3sccn23)n1 | -2.14
* CN1CCN(CCNc2nccc(-c3c(-c4cccc(O)c4)nc4sccn34)n2)S1(=O)=O | -2.70
* O=S(=O)(NCCNc1nccc(-c2c(-c3cccc(O)c3)nc3sccn23)n1)c1ccccc1 | -1.46
* CC1(C)CN(CCNc2nccc(-c3c(-c4cccc(O)c4)nc4sccn34)n2)S(=O)(=O)N1 | -1.99

###

Listed molecules paired with reported IC50
tested_system: Mitogen-activated protein kinase kinase kinase 20 (Homo sapiens)
Sequence (Q9NYL2 whole entry): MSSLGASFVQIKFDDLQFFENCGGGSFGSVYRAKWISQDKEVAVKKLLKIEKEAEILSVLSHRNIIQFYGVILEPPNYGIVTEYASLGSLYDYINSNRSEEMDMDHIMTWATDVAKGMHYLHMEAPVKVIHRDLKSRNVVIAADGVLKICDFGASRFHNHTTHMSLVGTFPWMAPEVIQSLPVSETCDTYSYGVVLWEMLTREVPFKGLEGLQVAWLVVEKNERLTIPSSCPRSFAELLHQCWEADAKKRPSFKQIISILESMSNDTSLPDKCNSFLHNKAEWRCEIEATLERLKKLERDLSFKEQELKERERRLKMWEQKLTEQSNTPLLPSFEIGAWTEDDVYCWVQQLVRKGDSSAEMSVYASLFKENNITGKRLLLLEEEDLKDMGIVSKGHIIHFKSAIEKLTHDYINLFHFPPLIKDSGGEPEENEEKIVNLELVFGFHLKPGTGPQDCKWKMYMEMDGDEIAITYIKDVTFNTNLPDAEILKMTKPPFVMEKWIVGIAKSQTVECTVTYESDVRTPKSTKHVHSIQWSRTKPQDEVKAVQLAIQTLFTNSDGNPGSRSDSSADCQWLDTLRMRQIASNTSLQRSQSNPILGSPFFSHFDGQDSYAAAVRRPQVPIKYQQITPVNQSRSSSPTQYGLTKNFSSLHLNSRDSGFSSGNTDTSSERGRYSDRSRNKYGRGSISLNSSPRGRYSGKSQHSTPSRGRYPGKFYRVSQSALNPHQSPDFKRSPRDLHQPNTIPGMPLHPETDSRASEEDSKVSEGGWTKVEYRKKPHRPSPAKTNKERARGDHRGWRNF
procedure_details: Inhibition of ZAK (unknown origin) incubated for 1 hr by qPCR analysis
property_measured: IC50 (µM)

- COc1cccc(-c2nc3sccn3c2-c2ccnc(NCCCNS(=O)(=O)c3cccc(F)c3)n2)c1: 11.3
- O=S(=O)(NCCCNc1nccc(-c2c(-c3cccc(O)c3)nc3sccn23)n1)c1cccc(F)c1: 10.3
- CN1CCN(CCNc2nccc(-c3c(-c4cccc(O)c4)nc4sccn34)n2)S1(=O)=O: 9.01
- O=S(=O)(NCCNc1nccc(-c2c(-c3cccc(O)c3)nc3sccn23)n1)c1ccc(F)cc1: 7.58
- COc1cccc(-c2nc3sccn3c2-c2ccnc(NCCNS(=O)(=O)c3ccc(C(F)(F)F)cc3)n2)c1: 8.11

###

System: Malme-3M
procedure_details: Antiproliferative activity against human Malme-3M cells assessed as cell growth inhibition measured after 48 hrs by SRB assay
Listing: IC50 of selected molecules
property_measured: IC50 (µM)

- O=S(=O)(NCCCNc1nccc(-c2c(-c3cccc(O)c3)nc3sccn23)n1)c1cccc(F)c1: 2.6
- CN1CCCN(CCNc2nccc(-c3c(-c4cccc(O)c4)nc4sccn34)n2)S1(=O)=O: 0.036
- COc1ccc(S(=O)(=O)NCCNc2nccc(-c3c(-c4ccccc4)nc4sccn34)n2)cc1: 8.7

###

tested_system: Serine/threonine-protein kinase B-raf (Homo sapiens, UniProt P15056, V600E)
procedure_details: Inhibition of human BRAF V600E mutant using myelin basic protein as substrate in presence of [gamma-33P]ATP incubated for 40 mins by scintillation counting method
pIC50: −log10 of the molar value.
Mark class 0 for pIC50 values under 7, and class 1 for everything at or above.

- O=S(=O)(NCCNc1nccc(-c2c(-c3cccc(O)c3)nc3sccn23)n1)c1ccccc1: class 1
- COc1ccc(-c2nc3sccn3c2-c2ccnc(NCCNS(=O)(=O)c3cccc4ccccc34)n2)cc1: class 0
- COc1cccc(-c2nc3sccn3c2-c2ccnc(NCCN3CCCN(C(=O)OC(C)(C)C)S3(=O)=O)n2)c1: class 1
- COc1cccc(-c2nc3sccn3c2-c2ccnc(NCCCNS(=O)(=O)c3ccc(C)cc3)n2)c1: class 0

###

procedure_details: in vitro
measurement_setup: human, BJ cells and Malme-3M cells
selectivity ratio for assorted molecules
property_measured: selectivity ratio

• CN1CCCN(CCNc2nccc(-c3c(-c4cccc(O)c4)nc4sccn34)n2)S1(=O)=O = 2100
• COc1ccc(S(=O)(=O)NCCNc2nccc(-c3c(-c4ccccc4)nc4sccn34)n2)cc1 = 6.4
• O=S(=O)(NCCCNc1nccc(-c2c(-c3cccc(O)c3)nc3sccn23)n1)c1cccc(F)c1 = 17.4

###

Each entry below lists one item and its recorded log10 IC50 value.
tested_system: RAF proto-oncogene serine/threonine-protein kinase (Homo sapiens, UniProt P04049)
Sequence (P04049 whole entry): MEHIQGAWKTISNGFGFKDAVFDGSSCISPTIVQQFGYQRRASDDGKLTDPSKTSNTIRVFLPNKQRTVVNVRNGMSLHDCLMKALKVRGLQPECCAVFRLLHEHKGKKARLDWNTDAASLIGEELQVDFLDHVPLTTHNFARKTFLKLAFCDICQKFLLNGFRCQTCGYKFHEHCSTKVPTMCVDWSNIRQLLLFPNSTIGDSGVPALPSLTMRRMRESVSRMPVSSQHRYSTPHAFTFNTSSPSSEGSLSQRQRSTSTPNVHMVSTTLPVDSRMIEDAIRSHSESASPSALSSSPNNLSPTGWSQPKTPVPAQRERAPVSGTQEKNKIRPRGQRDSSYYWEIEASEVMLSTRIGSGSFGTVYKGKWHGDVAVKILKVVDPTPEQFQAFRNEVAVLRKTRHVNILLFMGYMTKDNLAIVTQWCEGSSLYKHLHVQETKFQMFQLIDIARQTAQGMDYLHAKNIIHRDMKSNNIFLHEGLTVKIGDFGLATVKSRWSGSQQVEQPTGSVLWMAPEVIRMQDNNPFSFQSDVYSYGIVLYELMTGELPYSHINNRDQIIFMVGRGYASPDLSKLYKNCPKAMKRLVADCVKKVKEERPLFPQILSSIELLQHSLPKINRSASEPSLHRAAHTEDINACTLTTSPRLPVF
property_measured: log10 IC50 (log10 of the value in nM)

• O=S(=O)(NCCCNc1nccc(-c2c(-c3cccc(O)c3)nc3sccn23)n1)c1ccccc1 = 1.36
• COc1cccc(-c2nc3sccn3c2-c2ccnc(NCCNS(=O)(=O)c3cccc(F)c3)n2)c1 = 2.03
• COc1ccc(S(=O)(=O)NCCCNc2nccc(-c3c(-c4cccc(OC)c4)nc4sccn34)n2)cc1 = 2.21
• COc1cccc(-c2nc3sccn3c2-c2ccnc(NCCN3CCNS3(=O)=O)n2)c1 = 0.75
• COc1ccc(-c2nc3sccn3c2-c2ccnc(NCCNS(=O)(=O)c3cccc4ccccc34)n2)cc1 = 4.46
• O=S(=O)(NCCNc1nccc(-c2c(-c3ccccc3)nc3sccn23)n1)c1ccc(O)cc1 = 1.88
• CC(C)(C)OC(=O)N1CCCN(CCNc2nccc(-c3c(-c4cccc(O)c4)nc4sccn34)n2)S1(=O)=O = 1.00
• COc1cccc(-c2nc3sccn3c2-c2ccnc(NCCCNS(=O)(=O)c3ccccc3)n2)c1 = 2.11
• COc1cccc(-c2nc3sccn3c2-c2ccnc(NCCNS(=O)(=O)c3ccccc3)n2)c1 = 2.34
• COc1cccc(-c2nc3sccn3c2-c2ccnc(NCCNS(=O)(=O)c3ccc4ccccc4c3)n2)c1 = 2.28
